So I've got a bunch of molecules here, and I need their IC50 values.
# test_target: human IGF1R (hIGF1R) (Homo sapiens, UniProt P08069)
# Construct: containing amino acid residues 957-1367 of human IGF1R; made in house; host or cells: Sf9 cells (baculovirus)
# Sequence (P08069 957-1367): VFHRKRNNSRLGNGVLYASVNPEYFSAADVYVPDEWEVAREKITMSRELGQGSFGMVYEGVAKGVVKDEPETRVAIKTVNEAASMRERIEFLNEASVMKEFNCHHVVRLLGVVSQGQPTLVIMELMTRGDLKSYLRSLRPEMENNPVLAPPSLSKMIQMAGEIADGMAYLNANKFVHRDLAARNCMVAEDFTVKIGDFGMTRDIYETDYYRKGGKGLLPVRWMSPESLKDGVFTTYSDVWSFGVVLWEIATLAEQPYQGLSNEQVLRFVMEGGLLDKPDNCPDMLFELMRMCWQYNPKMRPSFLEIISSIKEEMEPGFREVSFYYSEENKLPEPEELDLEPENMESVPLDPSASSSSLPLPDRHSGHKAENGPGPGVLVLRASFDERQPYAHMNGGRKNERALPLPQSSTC
# method_notes: TR-FRET kinase assay of purified hIGF1R
# Format: biochemical
# settings: activated hIGF1R 0.5 nM, 10 μM ATP, values given as pIC50 category, read-out: IGF-1R pIC50 (converted)

Entry CCCN1CCC=C(c2ccc(Nc3nc(Nc4ccc(F)cc4C(N)=O)c4cc[nH]c4n3)c(OC)c2)C1 [Example 54] , IC50 reported as 0.251 to 1 nM

Entry COc1cc(N2CCN(C(C)=O)CC2)ccc1Nc1nc(Nc2cc(F)c(F)cc2C(N)=O)c2cc[nH]c2n1 [Example 103] , IC50 reported as 0.251 to 1 nM

Entry CNC(=O)c1c(F)cccc1Nc1nc(Nc2ccc3c(c2)N(C(=O)CN(C)C)CC3)nc2[nH]ccc12 [Example 130] , IC50 reported as 5.01 to 200 nM

Entry COc1cc2c(cc1Nc1nc(Nc3cccc(F)c3C(N)=O)c3cc[nH]c3n1)CN(C(=O)CCN1CCN(C(C)C)CC1)CC2 [Example 229] , IC50 reported as 5.01 to 200 nM

----------
# test_target: human IR (hIR) (Homo sapiens)
# Construct: containing amino acid residues 979-1382 of human IR
# Sequence (P06213 979-1382): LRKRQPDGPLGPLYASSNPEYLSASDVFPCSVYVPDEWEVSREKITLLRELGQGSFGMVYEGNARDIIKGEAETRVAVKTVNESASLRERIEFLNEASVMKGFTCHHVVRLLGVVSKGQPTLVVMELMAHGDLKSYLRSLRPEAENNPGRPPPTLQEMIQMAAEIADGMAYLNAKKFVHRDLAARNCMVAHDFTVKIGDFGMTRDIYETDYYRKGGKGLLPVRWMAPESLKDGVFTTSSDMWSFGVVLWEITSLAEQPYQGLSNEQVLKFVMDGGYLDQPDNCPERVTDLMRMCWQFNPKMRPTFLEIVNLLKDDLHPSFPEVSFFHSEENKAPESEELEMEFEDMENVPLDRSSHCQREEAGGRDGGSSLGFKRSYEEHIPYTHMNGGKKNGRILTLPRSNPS
# method_notes: TR-FRET kinase assay of purified hIR
# settings: activated hIR 0.5 nM, 10 μM ATP, values given as pIC50 category
reported_metric: IC50

Entry COc1cc(N2CCOC[C@@H]2C)ccc1Nc1nc(Nc2cc(F)c(F)cc2C(N)=O)c2cc[nH]c2n1 , IC50 reported as 0.251 to 1 nM

Entry Cc1ccc(NC(=O)CN(C)C)cc1Nc1nc(Nc2ccc(F)cc2C(N)=O)c2cc[nH]c2n1 , IC50 reported as 0.251 to 1 nM

Entry COc1cc2c(cc1Nc1nc(Nc3cccc(F)c3C(N)=O)c3cc[nH]c3n1)N(C(=O)CN)CC2 , IC50 reported as 1.26 to 3.98 nM

Entry CCCN1CCC=C(c2ccc(Nc3nc(Nc4cc(Cl)ccc4C(N)=O)c4cc[nH]c4n3)c(OC)c2)C1 , IC50 reported as 1.26 to 3.98 nM

Entry CCCN1CCC=C(c2ccc(Nc3nc(Nc4cc5ccccc5cc4C(N)=O)c4cc[nH]c4n3)c(OC)c2)C1 , IC50 reported as 1.26 to 3.98 nM

Entry CNC(=O)c1c(F)cccc1Nc1nc(Nc2cc3c(cc2OC)CCCN3C(=O)CN(C)C)nc2[nH]cc(C)c12 , IC50 reported as 0.251 to 1 nM

Entry COc1cc(C)c(NC(=O)CN(C)C)cc1Nc1nc(Nc2cccc(F)c2C(N)=O)c2cc[nH]c2n1 , IC50 reported as 0.251 to 1 nM

----------
# test_target: ALK (Homo sapiens)
# Sequence (Q9UM73 19-1620): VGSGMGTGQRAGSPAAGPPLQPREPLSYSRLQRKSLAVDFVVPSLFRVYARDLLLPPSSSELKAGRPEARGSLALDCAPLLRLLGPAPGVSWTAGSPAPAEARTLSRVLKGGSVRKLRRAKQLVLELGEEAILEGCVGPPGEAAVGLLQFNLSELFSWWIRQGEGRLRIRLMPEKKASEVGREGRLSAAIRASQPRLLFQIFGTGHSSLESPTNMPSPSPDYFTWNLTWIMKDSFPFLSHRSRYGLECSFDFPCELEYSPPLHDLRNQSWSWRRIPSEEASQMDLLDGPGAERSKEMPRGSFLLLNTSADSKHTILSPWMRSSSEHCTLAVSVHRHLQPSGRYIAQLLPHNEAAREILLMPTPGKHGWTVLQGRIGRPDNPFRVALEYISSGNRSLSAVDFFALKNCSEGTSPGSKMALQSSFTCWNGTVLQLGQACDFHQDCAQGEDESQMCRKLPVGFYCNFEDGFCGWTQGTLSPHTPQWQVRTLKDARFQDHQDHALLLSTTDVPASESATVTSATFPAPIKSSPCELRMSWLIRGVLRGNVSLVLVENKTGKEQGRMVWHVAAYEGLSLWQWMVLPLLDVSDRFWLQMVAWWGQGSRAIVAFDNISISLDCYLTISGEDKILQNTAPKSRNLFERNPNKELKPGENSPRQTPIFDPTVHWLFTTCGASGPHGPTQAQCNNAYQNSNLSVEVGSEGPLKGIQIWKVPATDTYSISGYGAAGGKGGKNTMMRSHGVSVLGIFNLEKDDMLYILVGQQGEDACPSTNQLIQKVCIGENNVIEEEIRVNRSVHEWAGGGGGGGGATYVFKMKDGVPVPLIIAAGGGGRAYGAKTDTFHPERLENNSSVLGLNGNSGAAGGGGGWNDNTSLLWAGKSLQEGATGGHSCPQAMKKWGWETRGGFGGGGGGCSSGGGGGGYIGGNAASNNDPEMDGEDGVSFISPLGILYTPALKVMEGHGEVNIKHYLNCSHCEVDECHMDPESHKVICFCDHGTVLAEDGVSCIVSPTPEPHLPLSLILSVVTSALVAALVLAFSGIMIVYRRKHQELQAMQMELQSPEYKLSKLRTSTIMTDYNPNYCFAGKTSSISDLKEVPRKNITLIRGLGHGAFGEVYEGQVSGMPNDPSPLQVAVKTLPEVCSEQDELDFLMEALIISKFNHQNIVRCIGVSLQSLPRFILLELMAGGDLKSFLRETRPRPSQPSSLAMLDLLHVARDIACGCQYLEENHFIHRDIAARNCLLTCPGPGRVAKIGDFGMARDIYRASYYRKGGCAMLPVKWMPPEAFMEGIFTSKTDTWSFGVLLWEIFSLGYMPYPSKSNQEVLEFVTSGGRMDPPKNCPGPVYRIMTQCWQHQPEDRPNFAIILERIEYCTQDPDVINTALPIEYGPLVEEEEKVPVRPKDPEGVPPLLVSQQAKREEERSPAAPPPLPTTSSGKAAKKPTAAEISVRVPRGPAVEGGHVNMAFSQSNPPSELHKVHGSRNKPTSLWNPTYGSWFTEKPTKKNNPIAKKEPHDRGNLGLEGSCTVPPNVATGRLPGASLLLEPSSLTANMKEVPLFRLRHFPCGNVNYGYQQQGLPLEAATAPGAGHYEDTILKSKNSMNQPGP
# method_notes: ALK enzyme assay (HTRF)
# Assay type: biochemical
# settings: 0.25 nM ALK, 15.0 μM ATP, values given as pIC50 category
reported_metric: IC50

Entry CNC(=O)c1c(F)cccc1Nc1nc(Nc2cc3c(cc2OC)CCN3C(=O)CN2CCC(O)C2)nc2[nH]ccc12 (stereo not shown) [Example 182] , IC50 reported as 0.251 to 1 nM

Entry CNC(=O)c1c(F)cccc1Nc1nc(Nc2cc3c(cc2OC)CCN(CCF)C3)nc2[nH]ccc12 [Example 234] , IC50 reported as 0.251 to 1 nM

Entry COc1cc(N2CCC(N3CC[C@H](F)C3)CC2)ccc1Nc1nc(Nc2cc(F)ccc2C(N)=O)c2cc[nH]c2n1 [Example 75] , IC50 reported as 1.26 to 3.98 nM

Entry CNC(=O)c1c(F)cccc1Nc1nc(Nc2cc3c(cc2OC)CCN3C(=O)CN2CCCC2)nc2[nH]ccc12 [Example 139] , IC50 reported as 0.251 to 1 nM

Entry COc1cc(N2CCN(C(C)C)CC2)ccc1Nc1nc(Nc2cccc(F)c2C(N)=O)c2cc[nH]c2n1 [Example 46] , IC50 reported as 0.251 to 1 nM

Entry COc1cc(CS(C)(=O)=O)ccc1Nc1nc(Nc2ccccc2C(N)=O)c2cc[nH]c2n1 [Example 19] , IC50 reported as 1.26 to 3.98 nM

Entry COc1cc(N2CCC(N3CCCC(F)(F)C3)CC2)ccc1Nc1nc(Nc2cc(F)ccc2C(N)=O)c2cc[nH]c2n1 [Example 77] , IC50 reported as 1.26 to 3.98 nM

----------
IC50 data for ALK (Homo sapiens, UniProt Q9UM73) follow.

Entry COc1cc2c(cc1Nc1nc(Nc3cccc(F)c3C(N)=O)c3cc[nH]c3n1)N(C(=O)CCN1CCN(C(C)C)CC1)CC2 [Example 188] , IC50 reported as 5.01 to 200 nM

Entry COc1cc2c(cc1Nc1nc(Nc3cccc(F)c3C(N)=O)c3cc[nH]c3n1)N(C(=O)CN(C)OC)CC2 [Example 144] , IC50 reported as 5.01 to 200 nM

Entry COc1cc2c(cc1Nc1nc(Nc3cccc(F)c3C(N)=O)c3cc[nH]c3n1)N(C(=O)[C@@H]1CCCN1C)CC2 [Example 147] , IC50 reported as 5.01 to 200 nM

Entry CCCN1CCC=C(c2ccc(Nc3nc(Nc4cc(C)ccc4C(N)=O)c4cc[nH]c4n3)c(C)c2)C1 [Example 35] , IC50 reported as 5.01 to 200 nM

Entry COc1cc2c(cc1Nc1nc(Nc3cccc(F)c3C(N)=O)c3cc[nH]c3n1)N(C(=O)CCN(C)C)CC2 [Example 118] , IC50 reported as 5.01 to 200 nM

Entry COc1cc(N2CCN(C(C)=O)CC2)ccc1Nc1nc(Nc2cc(F)c(F)cc2C(N)=O)c2cc[nH]c2n1 [Example 103] , IC50 reported as 1.26 to 3.98 nM

Entry CCCN1CCC(c2ccc(Nc3nc(Nc4cc(F)c(F)cc4C(N)=O)c4cc[nH]c4n3)c(OC)c2)CC1 [Example 98] , IC50 reported as 0.251 to 1 nM

Entry CN(C)CC(=O)Nc1ccc(OC(F)(F)F)c(Nc2nc(Nc3ccccc3C(N)=O)c3cc[nH]c3n2)c1 [Example 16] , IC50 reported as 0.251 to 1 nM

Entry COc1cc2c(cc1Nc1nc(Nc3cc4ccccc4cc3C(N)=O)c3cc[nH]c3n1)N(C(=O)CN(C)C)CC2 [Example 124] , IC50 reported as 1.26 to 3.98 nM

Entry COc1cc2c(cc1Nc1nc(Nc3cccc(F)c3C(N)=O)c3cc[nH]c3n1)N(C(=O)CN1CCC(O)C1)CC2 (stereo not drawn) [Example 181] , IC50 reported as 1.26 to 3.98 nM

Entry COc1cc(N2CCN(C(C)C)CC2)ccc1Nc1nc(Nc2cc(F)cc(OC)c2C(N)=O)c2cc[nH]c2n1 [Example 88] , IC50 reported as 1.26 to 3.98 nM

Entry COc1cc2c(cc1Nc1nc(Nc3cccc(F)c3C(N)=O)c3cc[nH]c3n1)N(C(=O)CN1CCCC(O)C1)CC2 (stereo not drawn) [Example 183] , IC50 reported as 0.251 to 1 nM

Entry CNC(=O)c1c(F)cc(F)cc1Nc1nc(Nc2cc3c(cc2OC)CCCN3C(=O)CN(C)C)nc2[nH]ccc12 [Example 179] , IC50 reported as 0.251 to 1 nM

Entry COc1cc2c(cc1Nc1nc(Nc3cc(F)cc(F)c3C(=O)NCc3ccc(F)cc3)c3cc[nH]c3n1)N(C(=O)CN(C)C)CC2 [Example 155] , IC50 reported as 5.01 to 200 nM

Entry CNC(=O)c1c(Nc2nc(Nc3cc4c(cc3OC)CCN4C(=O)CN(C)C)nc3[nH]ccc23)ccc(F)c1F [Example 160] , IC50 reported as 1.26 to 3.98 nM

----------
# test_target: human IGF1R (hIGF1R) (Homo sapiens)
# Construct: containing amino acid residues 957-1367 of human IGF1R; made in house; host or cells: Sf9 cells (baculovirus)
# method_notes: TR-FRET kinase assay of purified hIGF1R
# Assay type: biochemical
# settings: activated hIGF1R 0.5 nM, 10 μM ATP, values given as pIC50 category, read-out: IGF-1R pIC50 (converted)
So I've got a bunch of compounds here, and I need their IC50 values.

Entry COc1cc2c(cc1Nc1nc(Nc3cc(F)cc(F)c3C(N)=O)c3cc[nH]c3n1)N(C(=O)[C@@H]1CCCN1C)CC2 [Example 148] , IC50 reported as 1.26 to 3.98 nM

Entry COc1cc2c(cc1Nc1nc(Nc3cccc(F)c3C(N)=O)c3c(C)c[nH]c3n1)N(C(=O)CN(C)C)CCC2 [Example 261] , IC50 reported as 0.251 to 1 nM

Entry CNC(=O)c1c(F)cccc1Nc1nc(Nc2cc3c(cc2OC)C(C)(C)CN3C(=O)CN(C)C)nc2[nH]ccc12 [Example 127] , IC50 reported as 1.26 to 3.98 nM

Entry COc1cc(N2CCC(N3CCCC(F)(F)C3)CC2)ccc1Nc1nc(Nc2cc(F)ccc2C(N)=O)c2cc[nH]c2n1 [Example 77] , IC50 reported as 1.26 to 3.98 nM
